# protocol-details: Cytotoxicity against human FR2 cells assessed as cell viability at 10 uM after 48 hrs by MTT assay
# Type: cell-based
# applied-conditions: read-out: Activity
assay-endpoint: viability at 48 h, 10 µM
Please answer in the form of a number followed by its unit of measurement.

For orientation, consider the following solved cases.
[[record]]
compound_structure_string = "CC(=O)O[C@@H]1CC[C@]2(C)[C@H]3C(=O)C=C4[C@@H]5[C@@H](C)[C@H](C)CC[C@]5(C)CC[C@@]4(C)[C@]3(C)CC[C@H]2[C@@]1(C)N"
assay_endpoint = "viability at 48 h, 10 µM"
measured_result = "97%"

[[record]]
compound_structure_string = "CC(=O)O[C@@H]1CC[C@@]2(C)[C@@H](CC[C@]3(C)[C@@H]2C(=O)C=C2[C@@H]4[C@@H](C)[C@H](C)CC[C@]4(C)CC[C@]23C)[C@@]1(C)C(=O)O"
assay_endpoint = "viability at 48 h, 10 µM"
measured_result = "100%"


# ---- query molecule ----
## Input Which value of viability at 48 h, 10 µM has been reported for C[C@H]1[C@H](C)CC[C@]2(C)CC[C@]3(C)C(=CC(=O)[C@@H]4[C@@]5(C)CC[C@H](O)[C@](C)(C(=O)O)[C@@H]5CC[C@]43C)[C@H]12 in the records?
## Output 100%
